The reported numbers originate from ChEMBL document CHEMBL2157992.

Tested on: Jurkat
Measurement protocol: Antiproliferative activity against human Jurkat cells assessed as parent population at 10 uM after 24 hrs using CFSE staining by flow cytometry (reference value: 23.70 %)
Type: functional
Doc: threshold 50% (exclusive). Items with Activity beneath it return satisfied; others return not satisfied.

Cc1cc(O)c([C@@H](C)CC[C@@H]2CO2)cc1O (relative stereo)
not satisfied
Cc1cc(O)c([C@H](C)CC[C@H]2OC2(C)C)cc1O (relative stereo)
not satisfied
Cc1cc(O)c([C@H](C)CC[C@@H]2CO2)cc1O (relative stereo)
satisfied
Cc1ccc([C@H](C)CC[C@@H]2CO2)c(O)c1 (relative stereo)
satisfied
Cc1cc(O)c([C@@H](C)CC[C@H]2OC2(C)C)cc1O (relative stereo)
not satisfied

Does this molecule meet the criterion Activity < 50%? Cc1ccc([C@@H](C)CC[C@H]2OC2(C)C)c(O)c1 (relative stereo)
satisfied

Entry CC[C@H](CC[C@@H]1CO1)c1cc(O)ccc1O (relative stereo) please
satisfied
